Values compiled from the supplement of paper PMC10567573.

B1: ANKRD40 (parent)
chain: VCCCELGVNPDQVEKIRKLPNTLL

variants of: B1; experiment: protein stability index of a GFP-peptide fusion (GPS, HEK-293T) (PSI 1-6); higher = more stable; settings: c terminus: a fixed tail appended;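 also: lentivirally expressed fusions sorted by FACS into six bins by GFP to DsRed ratio, PSI derived from sequencing read proportions per bin multiplied by bin number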
# cutoff 2 applies to protein stability index; >= gives Condition met, < gives Condition not met

Solved cases (3 shown):
Has VCCCELGVNPDQVEKIRKLPNMLL [T22M] a recorded protein stability index greater than or equal to 2? Condition met

Check the entry VCCCELGVNPDQVPKIRKLPNTLL [E14P] : does protein stability index equal or exceed 2? Condition met

Reported protein stability index at or above 2? VCCCELGVNPDQVEKIRKLPWTLL [N21W] Condition not met

More entries:
Dear colleague, could you confirm whether VCCCETGVNPDQVEKIRKLPNTLL [L6T] has protein stability index at or above 2? Condition met

Check this variant for protein stability index at or above 2: VCCCELGVNPDQVEKIRMLPNTLL [K18M] Condition not met

Confirm if protein stability index reported for the variant VCCCELGVNPDQVEKDRKLPNTLL [I16D] is 2 or above. Condition met

Is the recorded value of protein stability index equal to or greater than 2 for this variant? VCCCELGVNPDQVEKIRKLPNTLW [L24W] Condition met
